tested on: NKL (IL-2 2.5 ng/mL); test: percent inhibition of viability; higher = more inhibition; settings: 72 h; 100 nM
// boundary case: percent inhibition of viability equal to 10% maps to FALSE; strictly smaller maps to TRUE

For orientation, consider the following solved cases.
>>> label_class("COc1cc2c(cc1O)CC[C@@H]1[C@@H]2CC[C@]2(C)[C@@H](O)CC[C@@H]12 [2-methoxyestradiol] (max concentration tested 10000 nM)")
"FALSE"
>>> label_class("N#CC(c1ccnc(OCc2ccc(CN3CCOCC3)cc2)n1)c1nc2ccccc2s1 (stereo unspecified) [Bentamapimod] (max concentration tested 10000 nM)")
"TRUE"
>>> label_class("CCN(CC)C(=S)SSC(=S)N(CC)CC [Disulfiram] (max concentration tested 100000 nM)")
"FALSE"
>>> label_class("O=C(/C=C\\n1cnc(-c2cc(C(F)(F)F)cc(C(F)(F)F)c2)n1)NNc1cnccn1 [Selinexor] (max concentration tested 10000 nM)")
"FALSE"
>>> label_class("CC1=C(/C=C/C(C)=C/C=C/C(C)=C/C(=O)O)C(C)(C)CCC1 [Tretinoin] (max concentration tested 10000 nM)")
"TRUE"

Now look at this entry.
Please indicate whether the reported percent inhibition of viability of O=C(Nc1cccc(Cl)c1)Nc1ncc(CCNc2ncnc3ccsc23)s1 [SNS-314] (max concentration tested 1000 nM) is strictly below 10%.
FALSE

====

system: NKL (IL-2 2.5 ng/mL); experiment: drug sensitivity score (DSS) (DSS units); higher = more sensitive; extreme values may be limits of the assay; settings: 72 h
Consider the following molecules; for each one, report its drug sensitivity score.
Give bare numbers.

Study these solved cases before continuing.
>>> observed_measurement("COCC1(CO)C(=O)C2CCN1CC2 (stereo unspecified) [APR-246] (max concentration tested 10000 nM)")
3.01
>>> observed_measurement("COc1cc(Nc2ncc3c(n2)-c2ccc(Cl)cc2C(c2c(F)cccc2OC)=NC3)ccc1C(=O)O [Alisertib] (max concentration tested 10000 nM)")
17.9
>>> observed_measurement("O=C(/C=C\\n1cnc(-c2cc(C(F)(F)F)cc(C(F)(F)F)c2)n1)NNc1cnccn1 [Selinexor] (max concentration tested 10000 nM)")
19.9

For each entry beneath this line, provide reported drug sensitivity score.
1. O=C1NC(=O)/C(=C/c2ccc3nccc(-c4ccncc4)c3c2)S1 (max concentration tested 10000 nM)
2. COc1cc2ncnc(Nc3ccc(F)c(Cl)c3)c2cc1OCCCN1CCOCC1 [Gefitinib] (max concentration tested 10000 nM)
3. O=C(O)c1ccc(Nc2ncc3c(n2)-c2ccc(Cl)cc2C(c2c(F)cccc2F)=NC3)cc1 [MLN-8054] (max concentration tested 10000 nM)

1: 10.6; 2: 5.38; 3: 14

====

test system: normal primary NK cells, pool 1 (3 donors) (IL-2 2.5 ng/mL); experiment: drug sensitivity score (DSS) (DSS units); higher = more sensitive; extreme values may be limits of the assay; settings: 72 h
Experimental readout: drug sensitivity score
One number for each entry.

Study these solved cases before continuing.
>>> observed_measurement("O=c1[nH]c(=O)n([C@H]2C[C@H](O)[C@@H](CO)O2)cc1F [Floxuridine] (max concentration tested 10000 nM)")
0
>>> observed_measurement("OC[C@H]1O[C@@H](n2cnc3c2N=CNC[C@H]3O)C[C@@H]1O [Pentostatin] (max concentration tested 10000 nM)")
0
>>> observed_measurement("O=NN(CCCl)C(=O)NCCCl [Carmustine] (max concentration tested 10000 nM)")
0
>>> observed_measurement("Nc1ncnc2c1nc(Cl)n2[C@@H]1O[C@H](CO)[C@@H](O)[C@H]1O [8-chloro-adenosine] (max concentration tested 50000 nM)")
8.37
>>> observed_measurement("Cc1cnc(NC(=O)Nc2cc(Br)c(C)cc2OC[C@@H]2CNCCO2)cn1 [Rabusertib] (max concentration tested 1000 nM)")
0
>>> observed_measurement("CN(C)C/C=C/C(=O)Nc1cc2c(Nc3ccc(F)c(Cl)c3)ncnc2cc1O[C@H]1CCOC1 [Afatinib] (max concentration tested 1000 nM)")
0.16

For each entry beneath this line, provide reported drug sensitivity score.
1. COc1cc2c(cc1O)CC[C@@H]1[C@@H]2CC[C@]2(C)[C@@H](O)CC[C@@H]12 [2-methoxyestradiol] (max concentration tested 10000 nM)
2. CCc1c2c(nc3ccc(OC(=O)N4CCC(N5CCCCC5)CC4)cc13)-c1cc3c(c(=O)n1C2)COC(=O)[C@]3(O)CC [Irinotecan] (max concentration tested 10000 nM)
3. O=C(O)c1ccc(Nc2ncc3c(n2)-c2ccc(Cl)cc2C(c2c(F)cccc2F)=NC3)cc1 [MLN-8054] (max concentration tested 10000 nM)

1: 1.6; 2: 0.5; 3: 0
